Reference source for all entries: patent US20060252807A1

# System: active p38 alpha enzyme (Upstate Biotechnology) (Homo sapiens, UniProt Q16539)
# Construct: purchased Upstate Biotechnology
# Sequence (Q16539 whole entry): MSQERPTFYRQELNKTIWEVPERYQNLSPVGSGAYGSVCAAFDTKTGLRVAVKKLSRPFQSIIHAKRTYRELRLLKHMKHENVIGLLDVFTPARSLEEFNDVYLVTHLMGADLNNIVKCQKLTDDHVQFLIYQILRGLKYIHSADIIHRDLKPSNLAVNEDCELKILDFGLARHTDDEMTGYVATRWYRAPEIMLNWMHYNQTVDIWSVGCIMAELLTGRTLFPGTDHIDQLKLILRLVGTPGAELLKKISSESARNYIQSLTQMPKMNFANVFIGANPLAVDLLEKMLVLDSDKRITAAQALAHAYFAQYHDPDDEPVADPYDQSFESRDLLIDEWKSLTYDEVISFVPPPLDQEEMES
# Test details: p38α biochemical assay (ATP turnover, luminescent detection, Cambrex PKlight)
# Condition set: p38α kinase; Table 1 Biological Activity
The following compounds are listed with their measured IC50 values.

CCC(CO)NCc1nc(-c2ccc(F)cc2)c(-c2nc(C(=O)NC(C)C)cs2)o1 (stereo not drawn) [Example 1073]: > 1000 nM
CC(C)NC(=O)c1csc(-c2oc(CNCCCN3CCOCC3)nc2-c2ccc(F)cc2)n1: > 1000 nM
CCCCc1ccc(C(=O)N2CCC(c3[nH]nc(-c4ccc(F)cc4)c3-c3nc(C(=O)NC(C)C)cs3)CC2)cc1: > 1000 nM

Returns the measured IC50 for the input compound. Input: COCC(C)NC(=O)c1csc(-c2sc(C)nc2-c2ccc(F)cc2)n1 (stereo not drawn)
≤ 1000 nM

Which IC50 is listed for COc1ccncc1NCc1nc(-c2ccc(F)cc2)c(-c2nc(C(=O)NC(C)C)cs2)o1 ?
> 1000 nM

Fill in: IC50 of Cc1nc(-c2ccc(F)cc2)c(-c2nc(C(=O)N3CCN(c4ccc(Cl)c(Cl)c4)CC3)cs2)s1 is ___
> 1000 nM

----------
IC50 for assorted compounds
# System: active p38 alpha enzyme (Upstate Biotechnology) (Homo sapiens, UniProt Q16539)
# Construct: purchased Upstate Biotechnology
# Test details: p38α biochemical assay (ATP turnover, luminescent detection, Cambrex PKlight)
# Condition set: p38α biochemical assay, Table 1 Biological Activity

Please review the entries below; each comes with its answer.
CC(C)NC(=O)c1csc(-c2oc(CNC(=O)c3cc(Cl)ccc3[N+](=O)[O-])nc2-c2ccc(F)cc2)n1: ≤ 1000 nM
CC(C)NC(=O)c1csc(-c2oc(CN3CCN(C(=O)c4ccc(C(F)(F)F)cc4[N+](=O)[O-])CC3)nc2-c2ccc(F)cc2)n1: > 1000 nM
Cc1onc(-c2ccc(Cl)cc2)c1-c1ccn(C(=O)NC(C)C)n1: ≤ 1000 nM
Cc1cc(C(=O)NCc2nc(-c3ccc(F)cc3)c(-c3nc(C(=O)NC(C)C)cs3)o2)n[nH]1: ≤ 1000 nM
CC(C)NC(=O)c1csc(-c2oc(CNC(=O)c3cscn3)nc2-c2ccc(F)cc2)n1: ≤ 1000 nM
O=C(O)c1csc(-c2c(-c3ccc(F)cc3)ncn2C2CCNCC2)n1: > 1000 nM

Quick check: IC50 of Cc1cc(C)c(C(=O)NCc2nc(-c3ccc(F)cc3)c(-c3nc(C(=O)NC(C)C)cs3)o2)c(C)c1 ?
> 1000 nM

Returns the measured IC50 for the input compound. Input: CC(C)NC(=O)c1csc(-c2oc(CNC(=O)c3cccnc3Cl)nc2-c2ccc(F)cc2)n1
≤ 1000 nM

----------
# System: active p38 alpha enzyme (Upstate Biotechnology) (Homo sapiens, UniProt Q16539)
# Construct: purchased Upstate Biotechnology
# Test details: p38α biochemical assay (ATP turnover, luminescent detection, Cambrex PKlight)
# Condition set: p38α kinase; Table 1 Biological Activity
pIC50: −log10 of the molar value.
Assay endpoint: pIC50

Observe how each entry below is paired with its result.
Cc1nc(-c2ccc(F)cc2)c(-c2nc(C(=O)Nc3ncccc3OCc3ccccc3)cs2)s1 [Example 2021]: < 6.00
COCCOCn1nc(-c2ccc(F)cc2)c(-c2nc(C=O)cs2)c1C [Example 2161]: < 6.00

Look up pIC50 for this compound: Cc1ccc([C@H](C)NC(=O)c2csc(-c3c(-c4ccc(F)cc4)n[nH]c3C3CCNCC3)n2)cc1 [Example 2092]
< 6.00

Given the compound Cc1nc(-c2ccc(F)cc2)c(-c2nc(C(=O)NCc3cc(F)cc(F)c3)cs2)s1 [Example 1791] , what is its reported pIC50?
≥ 6.00

pIC50 lookup needed for CCN(CC)CCN(Cc1ccccc1)Cc1nc(-c2ccc(F)cc2)c(-c2nc(C(=O)NC(C)C)cs2)o1 [Example 1281] , thanks.
< 6.00

# pIC50 lookup, item Cc1nc(-c2ccc(F)cc2)c(-c2nc(C(=O)NCCc3cccc(Cl)c3)cs2)s1 [Example 1804]
≥ 6.00

Given the compound Cc1ccc(NCc2nc(-c3ccc(F)cc3)c(-c3nc(C(=O)NC(C)C)cs3)o2)c(C)c1 [Example 1322] , what is its reported pIC50?
< 6.00

Fill in: pIC50 of CC(C)NC(=O)c1csc(-c2oc(CNCC(C)c3ccccc3)nc2-c2ccc(F)cc2)n1 (centres unmarked) [Example 1118] is ___
< 6.00

Any idea what pIC50 was measured for CC(C)NC(=O)c1csc(-c2c(-c3ccc(F)cc3)noc2CNCc2cccc(C(F)(F)F)c2)n1 [Example 1494] ?
< 6.00

Requested field: pIC50. Item: CCC(C)CNCc1onc(-c2ccc(F)cc2)c1-c1nc(C(=O)NC(C)C)cs1 (centres unmarked) [Example 1399]
< 6.00

Given the entry CCc1cccc(C)c1NCc1onc(-c2ccc(F)cc2)c1-c1nc(C(=O)NC(C)C)cs1 [Example 1660] , report its measured pIC50.
< 6.00

Report pIC50 for CCC(C)CNC(=O)c1csc(-c2c(-c3ccc(F)cc3)n[nH]c2C2CCNCC2)n1 (centres unmarked) [Example 2046] please.
< 6.00

Name the recorded pIC50 for Cc1nc(-c2ccc(F)cc2)c(-c2nc(C(=O)NCc3ccc(F)cc3)cs2)s1 [Example 1759] .
≥ 6.00

Find the recorded pIC50 belonging to CC(C)NC(=O)c1csc(-c2c(-c3ccc(F)cc3)noc2CN2CCCC(C(N)=O)C2)n1 (centres unmarked) [Example 1547] and report it.
< 6.00

Bench note: what pIC50 did O=C(NCc1cccnc1)c1csc(-c2c(-c3ccc(F)cc3)n[nH]c2C2CCNCC2)n1 [Example 2028] show?
≥ 6.00

If you can, please state the reported pIC50 value of CC(C)NC(=O)c1csc(-c2oc(CNCc3ccccc3F)nc2-c2ccc(F)cc2)n1 [Example 1105] .
< 6.00

Which pIC50 is listed for CC(C)NC(=O)c1csc(-c2oc(CNCC3CC3)nc2-c2ccc(F)cc2)n1 [Example 1060] ?
< 6.00

I would be grateful if you could share the reported pIC50 for Cc1nc(-c2ccc(F)cc2)c(-c2nc(C(=O)N3CCN(C(=O)OC(C)(C)C)C[C@H]3CO)cs2)s1 [Example 1943] .
< 6.00

Entry under review: CC(C)NC(=O)c1csc(-c2oc(CN3CCCC4CCCCC43)nc2-c2ccc(F)cc2)n1 (centres unmarked) [Example 1230] . Reported pIC50?
< 6.00

Endpoint output: pIC50 of CC(C)NC(=O)c1csc(-c2c(-c3ccc(F)cc3)noc2CNc2cc(F)cc(F)c2)n1 [Example 1653] . Value?
< 6.00

Dear colleague, I am looking for the recorded pIC50 of the following compound: CC(C)NC(=O)c1csc(-c2c(-c3ccc(F)cc3)noc2CNC2CCCc3ccccc32)n1 (centres unmarked) [Example 1671]
< 6.00

Consider the compound CC(C)NC(=O)c1csc(-c2c(-c3ccc(F)cc3)n[nH]c2C2CCN(C(=O)c3ccc(OC(C)C)cc3)CC2)n1 [Example 933] and give its measured pIC50.
< 6.00

Dear colleague, I am looking for the recorded pIC50 of the following compound: COc1ccc(-c2ccccc2)cc1NC(=O)c1csc(-c2sc(C)nc2-c2ccc(F)cc2)n1 [Example 2020]
< 6.00
